# assay-target: c-Myc/Max/Ebox DNA (Homo sapiens, UniProt P01106)
# Construct: his6 (cleaved yes)
# Sequence (P01106 whole entry): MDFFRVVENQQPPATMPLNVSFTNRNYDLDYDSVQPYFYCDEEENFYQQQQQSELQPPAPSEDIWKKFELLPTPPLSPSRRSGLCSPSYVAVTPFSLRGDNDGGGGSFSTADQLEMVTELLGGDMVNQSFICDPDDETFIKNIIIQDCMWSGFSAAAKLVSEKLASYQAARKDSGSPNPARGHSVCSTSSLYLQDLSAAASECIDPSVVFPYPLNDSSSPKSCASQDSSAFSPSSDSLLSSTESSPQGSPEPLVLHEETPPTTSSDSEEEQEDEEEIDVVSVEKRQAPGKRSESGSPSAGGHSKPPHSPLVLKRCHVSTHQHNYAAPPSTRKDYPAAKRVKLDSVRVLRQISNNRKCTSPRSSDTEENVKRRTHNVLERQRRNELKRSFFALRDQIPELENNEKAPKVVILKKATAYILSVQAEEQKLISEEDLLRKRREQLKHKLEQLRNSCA
# procedure-text: c-Myc/Max/Ebox DNA AlphaScreen Assay
# recorded-conditions: free c-Myc 20 nM, his6-Max 5 nM, biotinylated Ebox oligo 10 nM, 2 hour incubation
Where a name gives a salt, the structure may show the parent alone.
IC50 overview

{"molecule": "O=C(CCNC1CC1)Nc1sc2c(c1-c1nc3cnccc3s1)CCNC2 [Compound 221]", "assay-target": "c-Myc/Max/Ebox DNA (Homo sapiens, UniProt P01106)", "IC50": "< 500 nM"}
{"molecule": "CCC(C)NCCC(=O)Nc1sc2c(c1-c1nc3cnccc3s1)CCN(C(C)C)C2 (stereo not shown) [Compound 116, dihydrochloride]", "assay-target": "c-Myc/Max/Ebox DNA (Homo sapiens, UniProt P01106)", "IC50": "< 500 nM"}

Here is the next item to consider.
Data request: Report its IC50 with c-Myc/Max/Ebox DNA (Homo sapiens, UniProt P01106) as the test system: CC(C)NCCC(=O)Nc1sc2c(c1-c1nc3ncccc3s1)CCNC2 [Compound 220, dihydrochloride]
Data returned: < 500 nM

---

IC50 values by entry
# assay-target: c-Myc/Max/Ebox DNA (Homo sapiens)
# Construct: his6 (cleaved yes)
# procedure-text: c-Myc/Max/Ebox DNA AlphaScreen Assay
# recorded-conditions: free c-Myc 20 nM, his6-Max 5 nM, biotinylated Ebox oligo 10 nM, 2 hour incubation

Reference set, count: 5
{"molecule": "COCCNCCC(=O)Nc1sc2c(c1-c1nc3cncnc3s1)CCNC2", "IC50": "> 25000 nM"}
{"molecule": "C[C@@H]1NCCc2c1sc(NC(=O)CCN[C@@H]1C[C@H]3CNC[C@H]3C1)c2-c1nc2cnccc2s1", "IC50": "500 to 5000 nM"}
{"molecule": "Cc1nc(CN(C)CCC(=O)Nc2sc3c(c2-c2nc4cnccc4s2)CCNC3)no1", "IC50": "500 to 5000 nM"}
{"molecule": "CC(=O)Nc1sc2c(c1-c1nc3cnccc3s1)CCN(C)C2", "IC50": "500 to 5000 nM"}
{"molecule": "CCN1[C@@H](C)Cc2c(sc(NC(C)=O)c2-c2nc3cnccc3s2)[C@@H]1C", "IC50": "500 to 5000 nM"}

Data request: # return IC50 for C[C@H](NCCC(=O)Nc1sc2c(c1-c1nc3cnccc3s1)CCNC2)C1CC1 , test system: c-Myc/Max/Ebox DNA (Homo sapiens)
Data returned: < 500 nM

---

# assay-target: c-Myc/Max/Ebox DNA (Homo sapiens)
# Construct: his6 (cleaved yes)
# procedure-text: c-Myc/Max/Ebox DNA AlphaScreen Assay
# recorded-conditions: free c-Myc 20 nM, his6-Max 5 nM, biotinylated Ebox oligo 10 nM, 2 hour incubation
pIC50: −log10 of the molar value.
Each record here notes measured pIC50.

{"compound": "CC(=O)Nc1sc2c(c1-c1nc3cnccc3s1)C(C)CNC2 (centres unmarked) [Compound 104]", "pIC50": "5.30 to 6.30"}
{"compound": "COCCNCCC(=O)Nc1sc2c(c1-c1nc3cnc(C)cc3s1)CCNC2 [Compound 244]", "pIC50": "> 6.30"}
{"compound": "CC[C@H](C)NCCC(=O)Nc1sc2c(c1-c1nc3c(C(F)F)nccc3s1)CCNC2 [Compound 226]", "pIC50": "> 6.30"}
{"compound": "O=C(CCNCCN1CCNCC1)Nc1sc2c(c1-c1nc3cnccc3s1)CCNC2 [Compound 193]", "pIC50": "> 6.30"}
{"compound": "O=C(CCNC1CNC1)Nc1sc2c(c1-c1nc3cnccc3s1)CCNC2 [Compound 223]", "pIC50": "> 6.30"}

Data request: // fetch pIC50 given entry O=C(CCNCC12CC(CN1)C2)Nc1sc2c(c1-c1nc3cnccc3s1)CCNC2 [Compound 174]
Data returned: > 6.30

Data request: Consider the compound O=C(CCN1C[C@H]2CN[C@H]2C1)Nc1sc2c(c1-c1nc3cnccc3s1)CCNC2 [Compound 154] and give its recorded pIC50.
Data returned: > 6.30

Data request: Determine from records and report pIC50 for NC1CC(NCCC(=O)Nc2sc3c(c2-c2nc4cnccc4s2)CCNC3)C1 (centres unmarked) [Compound 195]
Data returned: > 6.30

Data request: Find the measured pIC50 of CC(=O)Nc1sc2c(c1-c1nc3cnccc3s1)C(C)CN(C(C)C)C2 (centres unmarked) [Compound 107] and report it.
Data returned: 5.30 to 6.30

Data request: Answer with the recorded pIC50 of O=C(CCN1CC2CCC2C1)Nc1sc2c(c1-c1nc3cnccc3s1)CCNC2 (centres unmarked) [Compound 130] only.
Data returned: > 6.30

Data request: Indicate the recorded pIC50 value for this compound: C[C@@H]1Cc2c(sc(NC(=O)CCN[C@@H]3C[C@H]4CNC[C@H]4C3)c2-c2nc3cnccc3s2)CN1 [Compound 250]
Data returned: 5.30 to 6.30

Data request: Specify measured pIC50 for O=C(CCN[C@@H]1C[C@H]2CNC[C@H]2C1)Nc1sc2c(c1-c1nc3cnccc3s1)CCNC2 [Compound 153] .
Data returned: > 6.30

---

Reported values of pIC50 for individual entries
# assay-target: c-Myc/Max/Ebox DNA (Homo sapiens)
# Construct: his6 (cleaved yes)
# procedure-text: c-Myc/Max/Ebox DNA AlphaScreen Assay
# Assay type: binding
# recorded-conditions: free c-Myc 20 nM, his6-Max 5 nM, biotinylated Ebox oligo 10 nM, 2 hour incubation
pIC50: −log10 of the molar value.

Here's what some known entries look like.
{"compound": "COC1(C)CCN(CCC(=O)Nc2sc3c(c2-c2nc4cnccc4s2)CCNC3)CC1", "pIC50": "> 6.30"}
{"compound": "CCN1C(C)c2sc(NC(C)=O)c(-c3nc4c(C(F)F)nccc4s3)c2C[C@H]1C (stereo in doubt)", "pIC50": "> 6.30"}
{"compound": "CC(=O)Nc1sc2c(c1-c1nc3c(C(F)F)nccc3s1)CCNC2", "pIC50": "> 6.30"}

Data request: Quick one: give measured pIC50 for Cc1ccc(CNCCC(=O)Nc2sc3c(c2-c2nc4cnccc4s2)CCNC3)s1
Data returned: > 6.30

---

# assay-target: c-Myc/Max/Ebox DNA (Homo sapiens, UniProt P01106)
# Construct: his6 (cleaved yes)
# procedure-text: c-Myc/Max/Ebox DNA AlphaScreen Assay
# recorded-conditions: free c-Myc 20 nM, his6-Max 5 nM, biotinylated Ebox oligo 10 nM, 2 hour incubation
# key: entry, value: IC50

{"compound": "CN(CCC(=O)Nc1sc2c(c1-c1nc3cnccc3s1)CCNC2)Cc1nc2ccccc2s1", "IC50": "5 to 25 µM"}
{"compound": "CC(NCCC(=O)Nc1sc2c(c1-c1nc3cnccc3s1)CCNC2)c1nc2ccccc2[nH]1 (centres unmarked)", "IC50": "5 to 25 µM"}
{"compound": "O=C(CCNCCc1cccnc1)Nc1sc2c(c1-c1nc3cnccc3s1)CCNC2", "IC50": "< 0.5 µM"}
{"compound": "CCN1CCc2c(sc(NC(C)=O)c2-c2nc3cnccc3s2)[C@H]1C", "IC50": "5 to 25 µM"}
{"compound": "Cc1cccc2c1CCN(CCC(=O)Nc1sc3c(c1-c1nc4cnccc4s1)CCNC3)C2", "IC50": "0.5 to 5 µM"}

Data request: Tell me measured IC50 for O=C(CCNC1CC(O)C1)Nc1sc2c(c1-c1nc3cnccc3s1)CCNC2 (centres unmarked) please.
Data returned: < 0.5 µM

Data request: Identify measured IC50 associated with CCC(C)NCCC(=O)[15NH]c1sc2c(c1-c1nc3cnccc3s1)CCNC2 (centres unmarked)
Data returned: < 0.5 µM

Data request: Quote IC50 reported for CCN1CCc2c(sc(NC(C)=O)c2-c2nc3cnccc3s2)[C@@H]1C please.
Data returned: < 0.5 µM

---

// reported pIC50 per item
# assay-target: c-Myc/Max/Ebox DNA (Homo sapiens, UniProt P01106)
# Construct: his6 (cleaved yes)
# procedure-text: c-Myc/Max/Ebox DNA AlphaScreen Assay
# recorded-conditions: free c-Myc 20 nM, his6-Max 5 nM, biotinylated Ebox oligo 10 nM, 2 hour incubation
pIC50: −log10 of the molar value.

Please review the entries below; each comes with its answer.
{"compound": "Cc1nc(CNCCC(=O)Nc2sc3c(c2-c2nc4cnccc4s2)CCNC3)no1", "pIC50": "> 6.30"}
{"compound": "COCCNCCC(=O)Nc1sc2c(c1-c1nc3c(C(F)F)nc(C)cc3s1)CCNC2", "pIC50": "> 6.30"}
{"compound": "O=C(CCN1C[C@@H]2CC(F)(F)C[C@@H]2C1)Nc1sc2c(c1-c1nc3cnccc3s1)CCNC2", "pIC50": "> 6.30"}

Okay, next one:
Data request: # return recorded pIC50 for input O=C(CCNCC1CCCC1)Nc1sc2c(c1-c1nc3cnccc3s1)CCNC2
Data returned: > 6.30

Origin of measurements: patent US11753418B2
